These entries and their values trace back to patent US20240034757A1.

Assign pKd to each entry below.
# assay target: T1, P1183_AMBTR (Amblyomma triste, UniProt A0A023G9N9 26-115);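 also: biolayer interferometry on an Octet system: chemokines at several doses tested against tick chemokine-binding proteins, association, equilibrium and dissociation curves fitted to derive Kd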
# T1 sequence: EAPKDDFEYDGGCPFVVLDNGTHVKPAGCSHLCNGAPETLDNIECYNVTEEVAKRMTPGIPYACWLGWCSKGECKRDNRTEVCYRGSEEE
# experiment notes: BLI
Numbers only, as −log10 of the molar value.

Below, each entry is followed by its recorded pKd result.
binder	result number
CCL8_HUMAN (ligand, UniProt P80075 24-99, looked up) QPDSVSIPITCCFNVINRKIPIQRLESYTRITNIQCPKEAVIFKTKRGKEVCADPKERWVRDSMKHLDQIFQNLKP	5.96
CCL4_HUMAN (ligand) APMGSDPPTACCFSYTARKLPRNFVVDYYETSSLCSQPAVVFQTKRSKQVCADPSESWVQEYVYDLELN	7.11
CCL3L1_HUMAN (ligand) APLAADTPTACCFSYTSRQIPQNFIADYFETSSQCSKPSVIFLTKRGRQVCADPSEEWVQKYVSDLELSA	6.96

Shifting focus to the binder that follows.
query: Which pKd value is on record for CCL4L1_HUMAN (ligand) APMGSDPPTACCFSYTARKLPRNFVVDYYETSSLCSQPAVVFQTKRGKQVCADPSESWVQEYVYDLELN ?
result: 7.32
